B1: tRNA (parent)
chain: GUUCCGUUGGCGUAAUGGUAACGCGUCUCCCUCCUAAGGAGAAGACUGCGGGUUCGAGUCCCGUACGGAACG

# Variants of: B1
# PROTOCOL SUMMARY: yeast fitness relative to wild type (ratio to wild type); higher = fitter; tRNA-Arg(CCU), competitive growth, 37 C, YPD
Fewer inactive variants are shown than the library holds.
ENDPOINT: yeast fitness

Solved cases below.
MUTATION KEY	yeast fitness
C5U U26A C55G C61A	≤ 0.5
A37U A45U C62G	≤ 0.5
C61G G63C G68A	≤ 0.5
U19G U32G G51C A57U	≤ 0.5
G39A U53A C62G C66U	≤ 0.5
G6C A37G C60G A65U	≤ 0.5
A15C C29U G39C A42U G50U G51C G63A A65U	≤ 0.5
C11U C27U C31A A42G C49G G51A G68C	≤ 0.5
G41A G52C C61U C62U	≤ 0.5
U3A U16C C33G C62U	≤ 0.5

Need yeast fitness of G23A U54A G67A , thanks. ≤ 0.5

Similarly, C27G C62U ? 0.688

Similarly, C30A G50C C66U ? ≤ 0.5

Similarly, G25C G51A U54A ? 0.507

Similarly, U26A C30A ? 0.768

Similarly, U32C G39C ? 0.765

Similarly, U8G G23C ? ≤ 0.5

Similarly, C22A C33G A43C ? 0.55

Similarly, C4U A15C C30G C49U A69C A70G ? ≤ 0.5

Similarly, C11A C46G A65G ? ≤ 0.5

Similarly, C24U G41A C62A ? 0.605

Similarly, G12C G17A A20U G58U ? ≤ 0.5

Similarly, C11A C61G ? ≤ 0.5

Similarly, C31G C66U ? 0.867

Similarly, U3A U28C C29G ? ≤ 0.5

Similarly, C29A G44A C49A U59A ? ≤ 0.5

Similarly, C5U A40G A45U ? 0.638

Similarly, U32A A37G G48A U59C ? 0.541

Similarly, C61G A69U ? 0.635

Similarly, U13G C46G ? 1.12
